Data origin: PubChem BioAssay AID1259415

Test: qHTS Assay for inhibitors of the human cytomegalovirus (HCMV); note: % is set by controls: 0 for no effect and ±100 for the full control effect
Conditions: HFF cells, HCMV-luciferase reporter, 72 h; at 57.5 µM; active compounds read low
Procedure: NCGC Assay Overview: Infection with human cytomegalovirus (HCMV) continues to pose significant threats for pregnant women and immunocompromised hosts. […] This is a cell-based assay for HCMV inhibition in HFFs cells. […] At 72 h post infection cell lysates were collected and luciferase activity was determined using the Glomax-Multi + Detection System (Promega, Madison, WI). […]
The whole screen tested about 410,000 compounds, of which about 18,000 (4.4%) were called active. About 7% were inconclusive and are not listed. The list comes from a sample in which actives are over-represented; it also holds close analogues and randomly drawn compounds.
Labelling: activity change, negative = inhibition reported below -10% becomes true (1); at or above becomes false (0).

Just wondering, is activity change, negative = inhibition of Nc1ccc(C(=O)OCC(=O)NC2CCCc3ccccc32)cc1[N+](=O)[O-] (stereo unspecified) below -10%?
false (0)

Just wondering, is activity change, negative = inhibition of "CCC(=O)N(Cc1cc2ccccc2[nH]c1=O)c1ccc(OC)cc1" below -10%?
false (0)

Just wondering, is activity change, negative = inhibition of CCN1C(=O)C(C(=O)NC(C)c2ccccc2)C2CC1(C)Oc1ccccc12 (stereo unspecified) below -10%?
true (1)

Just wondering, is activity change, negative = inhibition of "Nc1ncnc(Nc2cccc(Cl)c2Cl)n1" below -10%?
false (0)

Just wondering, is activity change, negative = inhibition of "COc1cc(CNC(=O)c2cc3n(n2)CCCN(Cc2cccc(F)c2)C3=O)cc(OC)c1OC" below -10%?
true (1)

Just wondering, is activity change, negative = inhibition of "O=c1cc(-c2ccccc2)[nH]c2cc(F)ccc12" below -10%?
true (1)

Just wondering, is activity change, negative = inhibition of "Cc1nn2c(=O)cc(COC(=O)c3cccc(NC(=O)COc4ccccc4Cl)c3)nc2s1" below -10%?
false (0)

Just wondering, is activity change, negative = inhibition of "CC(C)Oc1ccc(NC(=O)c2cc3ccccc3o2)cc1" below -10%?
false (0)

Just wondering, is activity change, negative = inhibition of "Cc1ccc(N(Cc2ccccc2O)C(=O)c2ccccc2F)cc1" below -10%?
false (0)

Just wondering, is activity change, negative = inhibition of "Cc1ccc(-c2cc(=O)c3ccc(F)cc3[nH]2)cc1" below -10%?
false (0)

Just wondering, is activity change, negative = inhibition of "Cc1ccc(N(Cc2cc(=O)[nH]c3ccccc23)C(=O)CCl)cc1" below -10%?
true (1)
